Target: PTGER4 (EP4) (Homo sapiens (Human), UniProt P35408)
Sequence (P35408 whole entry): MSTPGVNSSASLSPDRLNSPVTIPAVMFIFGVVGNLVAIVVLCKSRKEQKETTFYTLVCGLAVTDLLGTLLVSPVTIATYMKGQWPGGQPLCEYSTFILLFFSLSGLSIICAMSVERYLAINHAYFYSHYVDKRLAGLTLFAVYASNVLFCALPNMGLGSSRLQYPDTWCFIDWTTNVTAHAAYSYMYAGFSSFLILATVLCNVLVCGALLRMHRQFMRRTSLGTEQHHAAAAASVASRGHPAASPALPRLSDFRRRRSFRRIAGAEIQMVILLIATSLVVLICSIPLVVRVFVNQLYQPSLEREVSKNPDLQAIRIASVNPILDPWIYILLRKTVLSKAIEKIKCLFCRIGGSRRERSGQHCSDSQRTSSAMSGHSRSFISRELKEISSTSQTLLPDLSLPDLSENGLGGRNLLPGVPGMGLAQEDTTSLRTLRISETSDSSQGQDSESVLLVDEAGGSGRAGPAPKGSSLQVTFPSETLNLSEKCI
readoutName: pIC50
Please keep in mind that pIC50 is minus log10 of the molar concentration; only the number is needed.

# input Given the entry CCOc1cc2ccccc2cc1CCNc1cc(-c2ccc(C(=O)O)c(OC3CCC3)c2)ncn1 [Ex 171] , report its measured pIC50.
# output 7.21

# input Here is the next compound: C#Cc1c(CCNc2cc(-c3ccc(C(=O)O)c(OCC)c3)ncn2)ccc2ccccc12 [Ex 141]
# output 6.88

# input Here is the next compound: CCOc1cc(-c2cc(NCCc3cc(F)c4ncccc4c3F)ncn2)sc1C(=O)O [Ex 86]
# output 7.10

# input Here is the next compound: CCOc1cc(-c2cc(NCCc3cc4ccccc4cc3OC(C)C)ncn2)ccc1C(=O)O [Ex 284]
# output 6.90

# input Here is the next compound: CCOc1cc(-c2cc(NCCc3ccc4sccc4c3C)ncn2)sc1C(=O)O [Ex 20]
# output 7.13
